- experimental system: CYP2C19 (Homo sapiens, UniProt P33261)
- Sequence (P33261 whole entry): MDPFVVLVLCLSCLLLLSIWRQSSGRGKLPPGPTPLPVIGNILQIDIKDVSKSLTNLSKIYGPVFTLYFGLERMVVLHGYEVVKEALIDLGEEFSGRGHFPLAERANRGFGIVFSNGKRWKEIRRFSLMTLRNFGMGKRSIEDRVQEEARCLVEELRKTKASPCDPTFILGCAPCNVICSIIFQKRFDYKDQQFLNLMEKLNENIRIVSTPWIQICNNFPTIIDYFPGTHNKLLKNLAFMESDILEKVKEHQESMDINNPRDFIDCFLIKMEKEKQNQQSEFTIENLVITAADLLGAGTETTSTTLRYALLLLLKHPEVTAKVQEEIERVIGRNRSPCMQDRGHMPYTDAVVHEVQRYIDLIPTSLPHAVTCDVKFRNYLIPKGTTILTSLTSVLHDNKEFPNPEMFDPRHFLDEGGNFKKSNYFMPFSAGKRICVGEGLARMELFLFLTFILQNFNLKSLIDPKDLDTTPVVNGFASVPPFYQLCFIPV
- test details: Inhibition of CYP2C19 at 10 uM
- Format: ADME
value kind: inhibition at 10 µM

Entry under test: Cc1cccc2c1C(=O)NC1CNCCN21 (single isomer, unassigned; (+)) . Its inhibition at 10 µM was > 50%

###

- test details: Plasma concentration in Sprague-Dawley rat at 10 mg/kg, po after 8 hrs
- Type: ADME, organism-based
- Set-up: dose 10 mg/kg, route oral
value kind: concentration at 8 h (nM)
Please reply with the bare figure in nM and do not write the unit itself.

The measured concentration at 8 h associated with Cc1ccc2c(c1)N1CCNCCC1NC2=O (stereo in doubt; (+)-3c) reads 714

###

- experimental system: CYP2C9 (Homo sapiens, UniProt P11712)
- Sequence (P11712 whole entry): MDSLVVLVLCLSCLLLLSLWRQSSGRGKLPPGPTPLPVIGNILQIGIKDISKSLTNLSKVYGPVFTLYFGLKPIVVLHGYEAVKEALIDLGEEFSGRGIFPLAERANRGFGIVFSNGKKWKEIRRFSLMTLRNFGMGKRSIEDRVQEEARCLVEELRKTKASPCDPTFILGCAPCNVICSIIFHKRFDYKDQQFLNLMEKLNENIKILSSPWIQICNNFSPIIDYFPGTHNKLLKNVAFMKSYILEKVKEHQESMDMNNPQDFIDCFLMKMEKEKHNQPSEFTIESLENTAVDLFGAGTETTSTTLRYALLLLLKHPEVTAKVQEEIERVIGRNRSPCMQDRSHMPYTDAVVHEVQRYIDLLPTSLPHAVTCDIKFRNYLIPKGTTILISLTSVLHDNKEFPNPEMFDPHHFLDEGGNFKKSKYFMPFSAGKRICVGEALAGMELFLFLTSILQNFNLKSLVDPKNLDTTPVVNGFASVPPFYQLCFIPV
- test details: Inhibition of CYP2C9 at 10 uM
- Assay type: ADME
value kind: inhibition at 10 µM

For Cc1cccc2c1C(=O)NC1CNCCN21 (single isomer, unassigned; (+)) on CYP2C9 (Homo sapiens, UniProt P11712), measured inhibition at 10 µM was > 50%

###

- test details: AUC (0 to infinity) in Sprague-Dawley rat at 1 mg/kg, po
- Assay type: ADME, organism-based
- Parameters: time infinity, dose 1 mg/kg, route oral
- experimental setup: plasma
value kind: AUC(0-inf) (µM·h)
# value in µM·h; strip the unit string

Please fill in: AUC(0-inf) reported for Cc1cccc2c1C(=O)NC1CNCCN21 (single isomer, unassigned; (+)) = 1.15

###

Property: pEC50; scope: individual molecules
- experimental system: 5-hydroxytryptamine receptor 2B (Homo sapiens)
- Sequence (P41595 whole entry): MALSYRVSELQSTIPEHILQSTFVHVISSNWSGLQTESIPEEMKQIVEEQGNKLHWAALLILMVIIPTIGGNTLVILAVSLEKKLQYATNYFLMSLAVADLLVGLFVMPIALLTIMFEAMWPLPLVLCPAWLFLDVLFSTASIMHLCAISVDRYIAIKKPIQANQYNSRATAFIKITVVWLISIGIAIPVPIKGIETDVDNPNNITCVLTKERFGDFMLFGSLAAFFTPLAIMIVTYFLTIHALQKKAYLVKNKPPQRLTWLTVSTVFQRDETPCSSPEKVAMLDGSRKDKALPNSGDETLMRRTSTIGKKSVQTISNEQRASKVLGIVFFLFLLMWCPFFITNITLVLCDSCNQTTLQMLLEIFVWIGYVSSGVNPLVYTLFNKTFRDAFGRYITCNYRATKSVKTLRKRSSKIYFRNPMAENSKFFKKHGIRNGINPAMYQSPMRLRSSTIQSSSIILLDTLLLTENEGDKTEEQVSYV
- test details: Agonist activity at human recombinant 5HT2B receptor expressed in HEK293E cells by FLIPR assay
Recall that pEC50 is obtained by taking minus log10 of the concentration measured in molar.

Would you please look over these solved cases?
O=C1NC2CCNCCN2c2ccccc21 (single isomer, unassigned): 7.00
O=C1NC2CCNCCN2c2cccc(Cl)c21 (single isomer, unassigned): 7.34

Now let's try a different one.
Briefly, pEC50 measured for Cc1cccc2c1C(=O)NC1CCNCCN21 (stereo unspecified) : 7.21

###

- experimental system: hERG (Homo sapiens, UniProt Q12809)
- Sequence (Q12809 whole entry): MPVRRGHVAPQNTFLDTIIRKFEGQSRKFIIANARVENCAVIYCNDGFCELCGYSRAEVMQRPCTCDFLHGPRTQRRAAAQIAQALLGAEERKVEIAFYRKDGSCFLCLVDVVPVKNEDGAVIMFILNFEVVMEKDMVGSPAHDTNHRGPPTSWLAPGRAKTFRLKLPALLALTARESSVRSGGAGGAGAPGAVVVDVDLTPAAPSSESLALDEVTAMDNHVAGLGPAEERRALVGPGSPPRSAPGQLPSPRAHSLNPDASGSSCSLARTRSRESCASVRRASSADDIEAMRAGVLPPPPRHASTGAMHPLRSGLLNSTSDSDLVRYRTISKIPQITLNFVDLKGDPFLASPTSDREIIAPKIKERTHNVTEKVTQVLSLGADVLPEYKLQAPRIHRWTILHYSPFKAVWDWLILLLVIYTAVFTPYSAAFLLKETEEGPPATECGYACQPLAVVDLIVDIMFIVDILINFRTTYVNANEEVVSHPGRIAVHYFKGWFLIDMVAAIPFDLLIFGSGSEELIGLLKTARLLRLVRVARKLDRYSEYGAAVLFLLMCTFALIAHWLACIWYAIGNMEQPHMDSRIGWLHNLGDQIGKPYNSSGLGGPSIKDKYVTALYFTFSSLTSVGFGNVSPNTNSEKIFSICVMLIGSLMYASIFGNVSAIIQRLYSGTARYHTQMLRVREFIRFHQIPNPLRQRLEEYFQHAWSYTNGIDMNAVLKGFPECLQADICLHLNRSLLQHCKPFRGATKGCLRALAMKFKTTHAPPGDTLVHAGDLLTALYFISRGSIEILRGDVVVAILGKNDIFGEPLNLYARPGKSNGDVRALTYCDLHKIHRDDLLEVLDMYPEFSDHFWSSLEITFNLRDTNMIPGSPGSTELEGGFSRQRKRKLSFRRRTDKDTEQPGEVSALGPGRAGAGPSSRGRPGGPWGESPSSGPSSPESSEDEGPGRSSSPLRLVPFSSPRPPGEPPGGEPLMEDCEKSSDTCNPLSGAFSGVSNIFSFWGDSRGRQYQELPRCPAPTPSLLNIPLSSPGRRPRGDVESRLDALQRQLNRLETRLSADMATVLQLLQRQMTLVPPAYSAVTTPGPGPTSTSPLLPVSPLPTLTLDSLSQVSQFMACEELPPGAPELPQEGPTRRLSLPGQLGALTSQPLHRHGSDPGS
- test details: Inhibition of human ERG at 10 uM by patch clamp method
value kind: inhibition at 10 µM (%)
Give the quantity in %, number only.

Per the records, this compound ( Cc1cccc2c1C(=O)NC1CNCCN21 (single isomer, unassigned; (+)) ) has inhibition at 10 µM equal to 37

###

Item-by-item account of pEC50
- experimental system: 5-hydroxytryptamine receptor 2A (Homo sapiens, UniProt P28223)
- Sequence (P28223 whole entry): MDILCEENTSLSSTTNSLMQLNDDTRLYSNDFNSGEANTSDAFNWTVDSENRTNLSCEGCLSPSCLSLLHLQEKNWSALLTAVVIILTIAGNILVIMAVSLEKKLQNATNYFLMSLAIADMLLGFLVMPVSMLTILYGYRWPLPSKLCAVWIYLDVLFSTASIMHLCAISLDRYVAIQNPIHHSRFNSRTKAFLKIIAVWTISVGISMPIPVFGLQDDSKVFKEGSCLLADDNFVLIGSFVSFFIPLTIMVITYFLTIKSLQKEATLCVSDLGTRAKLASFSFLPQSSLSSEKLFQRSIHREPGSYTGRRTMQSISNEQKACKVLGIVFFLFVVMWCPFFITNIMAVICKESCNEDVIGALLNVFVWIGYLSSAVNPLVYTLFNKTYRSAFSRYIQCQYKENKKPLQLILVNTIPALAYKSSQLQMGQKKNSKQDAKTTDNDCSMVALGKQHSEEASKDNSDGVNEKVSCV
- test details: Agonist activity at human recombinant 5HT2A receptor expressed in HEK293E cells by FLIPR assay
Remember the convention: pEC50 equals -log10 of concentration in molar.

O=C1NC2CCNCCN2c2cccc(Cl)c21 (single isomer, unassigned): 6.89
O=C1NC2CCNCCN2c2ccccc21 (single isomer, unassigned): 6.61
Cc1cccc2c1C(=O)NC1CCNCCN21 (stereo not given): 7.15

Now for a further compound.
Record for Cc1ccc2c(c1)N1CCNCCC1NC2=O (stereo in doubt; (+)-3c) under target or system 5-hydroxytryptamine receptor 2A (Homo sapiens, UniProt P28223): pEC50 reported as 6.02

###

- experimental system: Cytochrome P450 2D6 (Homo sapiens)
- Sequence (P10635 whole entry): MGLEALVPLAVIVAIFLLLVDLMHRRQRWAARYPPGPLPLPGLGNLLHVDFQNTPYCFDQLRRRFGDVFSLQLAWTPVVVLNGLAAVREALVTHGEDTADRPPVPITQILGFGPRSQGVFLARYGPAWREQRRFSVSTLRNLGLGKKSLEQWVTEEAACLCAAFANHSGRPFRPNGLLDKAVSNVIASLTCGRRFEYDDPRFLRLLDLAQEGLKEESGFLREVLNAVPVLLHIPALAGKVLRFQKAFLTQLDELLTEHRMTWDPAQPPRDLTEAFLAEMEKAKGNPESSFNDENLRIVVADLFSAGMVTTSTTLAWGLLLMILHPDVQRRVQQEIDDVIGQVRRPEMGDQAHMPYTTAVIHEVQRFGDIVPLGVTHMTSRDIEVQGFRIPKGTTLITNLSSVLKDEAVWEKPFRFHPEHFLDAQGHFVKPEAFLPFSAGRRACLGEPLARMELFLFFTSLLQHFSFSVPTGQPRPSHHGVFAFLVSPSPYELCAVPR
pIC50: −log10 of the molar value.
value kind: pIC50

Entry Cc1cccc2c1C(=O)NC1CNCCN21 (single isomer, unassigned; (+)) under Cytochrome P450 2D6 (Homo sapiens) had pIC50 of < 4.40

Where do the numbers come from? From ChEMBL document CHEMBL1158511.
